- Assay protocol: Cmax in Sprague-Dawley rat at 10 mg/kg, ip measured for 24 hrs
- Assay type: ADME, organism-based
- Measurement context: in vivo
Assay readout: Cmax (ng/mL)
Write the number in ng/mL without appending the unit.

Which measured Cmax value corresponds to COc1ccc(-c2ccc3[nH]c(=O)c4nnn(-c5ccc(N6CCN(C(=O)/C=C/C(=O)c7ccc(F)cc7)CC6)c(C(F)(F)F)c5)c4c3c2)cn1 ?
90.6

====

- Assay protocol: Clearance in Sprague-Dawley rat at 5 mg/kg, iv measured for 24 hrs
- Type: ADME, organism-based
- Measurement context: in vivo
Assay readout: clearance (mL/min/kg)
Write the answer as a number in mL/min/kg, unit excluded.

Which clearance is reported for this compound? COc1ccc(-c2ccc3[nH]c(=O)c4nnn(-c5ccc(N6CCN(C(=O)/C=C/C(=O)c7ccc(F)cc7)CC6)c(C(F)(F)F)c5)c4c3c2)cn1
69.2
